Listed here: items and their measured MIC.
test system: Streptococcus pneumoniae; assay: Antibacterial activity against erythromycin-susceptible Streptococcus pneumoniae ATCC 49619
observation_type: MIC

- compound: "CC[C@H]1OC(=O)[C@H](C)[C@@H](O[C@H]2C[C@@](C)(OC)[C@@H](OC(=O)NCCc3ccccc3)[C@H](C)O2)[C@H](C)[C@@H](O[C@@H]2O[C@H](C)C[C@H](N(C)C)[C@H]2O)[C@@](C)(O)C[C@@H](C)CN(C)[C@H](C)[C@H]2OC(=O)O[C@@]21C"
  target_of_assay: "Streptococcus pneumoniae"
  observation_type: "MIC"
  result: "0.06 µg/mL"
- compound: "CC[C@H]1OC(=O)[C@H](C)[C@@H](O[C@H]2C[C@@](C)(OC)[C@@H](O)[C@H](C)O2)[C@H](C)[C@@H](O[C@@H]2O[C@H](C)C[C@H](N(C)C)[C@H]2O)[C@](C)(OC)C[C@@H](C)C(=O)[C@H](C)[C@@H](O)[C@]1(C)O [CLARITHROMYCIN]"
  target_of_assay: "Streptococcus pneumoniae"
  observation_type: "MIC"
  result: "< 0.03 µg/mL"
- compound: "CC[C@H]1OC(=O)[C@H](C)[C@@H](O[C@H]2C[C@@](C)(OC)[C@@H](OC(=O)NCCc3ccc(O)cc3)[C@H](C)O2)[C@H](C)[C@@H](O[C@@H]2O[C@H](C)C[C@H](N(C)C)[C@H]2O)[C@@](C)(O)C[C@@H](C)CN(C)[C@H](C)[C@@H](OC(=O)NCCc2ccccc2Cl)[C@]1(C)O"
  target_of_assay: "Streptococcus pneumoniae"
  observation_type: "MIC"
  result: "< 0.03 µg/mL"
- compound: "CC[C@H]1OC(=O)[C@H](C)[C@@H](O[C@H]2C[C@@](C)(OC)[C@@H](OC(=O)NCCc3ccc4c(c3)OCO4)[C@H](C)O2)[C@H](C)[C@@H](O[C@@H]2O[C@H](C)C[C@H](N(C)C)[C@H]2O)[C@@](C)(O)C[C@@H](C)CN(C)C(C)[C@H]2OC(=O)O[C@@]21C (some centres undefined)"
  target_of_assay: "Streptococcus pneumoniae"
  observation_type: "MIC"
  result: "< 0.03 µg/mL"
